# target.under.test: Serine/threonine-protein kinase B-raf (Homo sapiens, UniProt P15056)
# Sequence (P15056 whole entry): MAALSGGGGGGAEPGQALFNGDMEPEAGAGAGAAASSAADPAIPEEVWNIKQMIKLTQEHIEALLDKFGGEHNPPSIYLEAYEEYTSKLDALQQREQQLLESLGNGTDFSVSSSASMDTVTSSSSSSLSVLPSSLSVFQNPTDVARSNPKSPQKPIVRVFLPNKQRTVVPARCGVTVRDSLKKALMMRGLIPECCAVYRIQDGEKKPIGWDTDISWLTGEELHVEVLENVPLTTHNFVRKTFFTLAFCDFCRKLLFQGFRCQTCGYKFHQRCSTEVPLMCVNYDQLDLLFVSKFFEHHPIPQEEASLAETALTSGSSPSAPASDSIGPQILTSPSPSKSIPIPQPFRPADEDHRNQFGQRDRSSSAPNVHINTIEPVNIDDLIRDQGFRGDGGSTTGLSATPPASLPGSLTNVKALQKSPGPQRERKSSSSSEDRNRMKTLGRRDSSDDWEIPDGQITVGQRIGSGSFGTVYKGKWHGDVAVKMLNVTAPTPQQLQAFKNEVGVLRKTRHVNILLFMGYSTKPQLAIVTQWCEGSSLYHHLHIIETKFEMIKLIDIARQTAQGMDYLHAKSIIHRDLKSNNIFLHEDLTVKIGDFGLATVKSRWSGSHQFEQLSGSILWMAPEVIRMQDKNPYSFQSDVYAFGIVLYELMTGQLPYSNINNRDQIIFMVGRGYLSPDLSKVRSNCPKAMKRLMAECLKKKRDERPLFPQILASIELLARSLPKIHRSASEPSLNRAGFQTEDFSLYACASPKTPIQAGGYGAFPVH
# assay.remarks: Binding affinity to recombinant human full-length wild type B-Raf (unknown origin) assessed as GYLSPDLSK accessible protease cleavage peptide level by LC-MS/MS analysis relative to control
Decision: Ratio beneath 0.9 gives true; Ratio meeting or exceeding 0.9 gives false.

Q) Does the reported Ratio of the following compound sit strictly below 0.9? CCN(C)S(=O)(=O)Nc1ccc(F)c(C(=O)c2c[nH]c3ncc(-c4ccc(Cl)cc4)cc23)c1F
A) true

Q) Does the reported Ratio of the following compound sit strictly below 0.9? Nc1ncnc2c1ncn2[C@@H]1O[C@H](COP(=O)(O)OP(=O)(O)OP(=O)(O)O)[C@@H](O)[C@H]1O
A) true

Q) Does the reported Ratio of the following compound sit strictly below 0.9? Nc1ncnc2c1ncn2[C@@H]1O[C@H](COP(=O)(O)OP(=O)(O)O)[C@@H](O)[C@H]1O
A) false

Q) Does the reported Ratio of the following compound sit strictly below 0.9? Nc1ncnc2c1ncn2[C@@H]1O[C@H](COP(=O)(O)OP(=O)(O)NP(=O)(O)O)[C@@H](O)[C@H]1O
A) true

* * *

# target.under.test: Serine/threonine-protein kinase B-raf (Homo sapiens)
# assay.remarks: Binding affinity to recombinant human full-length wild type B-Raf (unknown origin) assessed as GDGGSTTGLSATPPASLPGSLTNVK accessible protease cleavage peptide level by LC-MS/MS analysis relative to control
For each of the compounds below, state its Ratio.

Q) Tell me its Ratio given CCN(C)S(=O)(=O)Nc1ccc(F)c(C(=O)c2c[nH]c3ncc(-c4ccc(Cl)cc4)cc23)c1F as the entry.
A) 1.16

Please give Ratio, item by item, for the list that follows.
1. CCN(C)S(=O)(=O)Nc1ccc(F)c(C(=O)c2c[nH]c3ncc(Cl)cc23)c1F
2. Nc1ncnc2c1ncn2[C@@H]1O[C@H](COP(=O)(O)OP(=O)(O)OP(=O)(O)O)[C@@H](O)[C@H]1O
3. Nc1ncnc2c1ncn2[C@@H]1O[C@H](COP(=O)(O)OP(=O)(O)O)[C@@H](O)[C@H]1O
4. Nc1ncnc2c1ncn2[C@@H]1O[C@H](COP(=O)(O)OP(=O)(O)NP(=O)(O)O)[C@@H](O)[C@H]1O

A)
1. 1.55
2. 0.68
3. 1.28
4. 0.98

* * *

# target.under.test: Serine/threonine-protein kinase B-raf (Homo sapiens, UniProt P15056, V600E)
# Sequence (P15056 2-766 V600E limits assumed): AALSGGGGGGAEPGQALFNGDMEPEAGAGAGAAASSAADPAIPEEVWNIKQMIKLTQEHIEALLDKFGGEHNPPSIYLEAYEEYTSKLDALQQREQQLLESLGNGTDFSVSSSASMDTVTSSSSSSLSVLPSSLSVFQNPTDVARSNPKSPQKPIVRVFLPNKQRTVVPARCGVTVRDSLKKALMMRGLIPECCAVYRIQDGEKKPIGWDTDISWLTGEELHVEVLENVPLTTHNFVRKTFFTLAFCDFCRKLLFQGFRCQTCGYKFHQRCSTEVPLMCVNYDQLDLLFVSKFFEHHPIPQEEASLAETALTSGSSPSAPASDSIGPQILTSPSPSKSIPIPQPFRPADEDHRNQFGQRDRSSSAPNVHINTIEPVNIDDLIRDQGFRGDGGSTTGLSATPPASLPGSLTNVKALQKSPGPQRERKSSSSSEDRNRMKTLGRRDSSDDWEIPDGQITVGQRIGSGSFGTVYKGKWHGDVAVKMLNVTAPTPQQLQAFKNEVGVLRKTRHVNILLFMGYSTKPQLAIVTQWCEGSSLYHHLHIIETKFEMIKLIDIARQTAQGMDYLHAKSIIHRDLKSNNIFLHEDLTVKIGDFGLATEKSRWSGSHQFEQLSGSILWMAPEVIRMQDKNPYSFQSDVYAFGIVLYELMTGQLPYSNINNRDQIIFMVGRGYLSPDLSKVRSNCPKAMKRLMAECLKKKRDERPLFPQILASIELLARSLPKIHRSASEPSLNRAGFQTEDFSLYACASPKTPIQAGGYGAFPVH
# assay.remarks: Inhibition of B-Raf V600E mutant (unknown origin) assessed as inhibition of phosphorylation of peptide substrate
For each of the compounds below, state its IC50.

Q) Tell me its IC50 given CCN(C)S(=O)(=O)Nc1ccc(F)c(C(=O)c2c[nH]c3ncc(-c4ccc(Cl)cc4)cc23)c1F as the entry.
A) < 100 nM

// switching to the query compound
Q) Tell me its IC50 given CCN(C)S(=O)(=O)Nc1ccc(F)c(C(=O)c2c[nH]c3ncc(Cl)cc23)c1F as the entry.
A) < 100 nM

* * *

For each of the molecules below, state its Ratio.
# target.under.test: Serine/threonine-protein kinase B-raf (Homo sapiens, UniProt P15056)
# assay.remarks: Binding affinity to recombinant human full-length wild type B-Raf (unknown origin) assessed as DSSDDWEIPDGQITVGQR accessible protease cleavage peptide level by LC-MS/MS analysis relative to control; further: test concentration or dose not given here
Give bare numbers.

Example entries begin here.
Q) Tell me its Ratio given CCN(C)S(=O)(=O)Nc1ccc(F)c(C(=O)c2c[nH]c3ncc(Cl)cc23)c1F as the entry.
A) 0.56

Q) Tell me its Ratio given Nc1ncnc2c1ncn2[C@@H]1O[C@H](COP(=O)(O)OP(=O)(O)OP(=O)(O)O)[C@@H](O)[C@H]1O as the entry.
A) 0.62

Q) Tell me its Ratio given Nc1ncnc2c1ncn2[C@@H]1O[C@H](COP(=O)(O)OP(=O)(O)O)[C@@H](O)[C@H]1O as the entry.
A) 0.83

Q) Tell me its Ratio given Nc1ncnc2c1ncn2[C@@H]1O[C@H](COP(=O)(O)OP(=O)(O)NP(=O)(O)O)[C@@H](O)[C@H]1O as the entry.
A) 0.71

// switching to the query molecule
Q) Tell me its Ratio given CCN(C)S(=O)(=O)Nc1ccc(F)c(C(=O)c2c[nH]c3ncc(-c4ccc(Cl)cc4)cc23)c1F as the entry.
A) 0.37

* * *

# target.under.test: Serine/threonine-protein kinase B-raf (Homo sapiens, UniProt P15056)
# assay.remarks: Binding affinity to recombinant human full-length wild type B-Raf (unknown origin) assessed as 7VVPAR accessible protease cleavage peptide level by LC-MS/MS analysis relative to control; further: test concentration or dose not given here
measured.quantity: Ratio
Numbers only.

Q) For Serine/threonine-protein kinase B-raf (Homo sapiens, UniProt P15056), give Ratio of the listed molecule: CCN(C)S(=O)(=O)Nc1ccc(F)c(C(=O)c2c[nH]c3ncc(-c4ccc(Cl)cc4)cc23)c1F
A) 0.96

Q) For Serine/threonine-protein kinase B-raf (Homo sapiens, UniProt P15056), give Ratio of the listed molecule: Nc1ncnc2c1ncn2[C@@H]1O[C@H](COP(=O)(O)OP(=O)(O)NP(=O)(O)O)[C@@H](O)[C@H]1O
A) 0.89

Q) For Serine/threonine-protein kinase B-raf (Homo sapiens, UniProt P15056), give Ratio of the listed molecule: Nc1ncnc2c1ncn2[C@@H]1O[C@H](COP(=O)(O)OP(=O)(O)OP(=O)(O)O)[C@@H](O)[C@H]1O
A) 0.97

Q) For Serine/threonine-protein kinase B-raf (Homo sapiens, UniProt P15056), give Ratio of the listed molecule: Nc1ncnc2c1ncn2[C@@H]1O[C@H](COP(=O)(O)OP(=O)(O)O)[C@@H](O)[C@H]1O
A) 1.21

// switching to the query molecule
Q) For Serine/threonine-protein kinase B-raf (Homo sapiens, UniProt P15056), give Ratio of the listed molecule: CCN(C)S(=O)(=O)Nc1ccc(F)c(C(=O)c2c[nH]c3ncc(Cl)cc23)c1F
A) 1.26

* * *

# target.under.test: Serine/threonine-protein kinase B-raf (Homo sapiens)
# assay.remarks: Binding affinity to recombinant human full-length wild type B-Raf (unknown origin) assessed as IGDFGLATVK accessible protease cleavage peptide level by LC-MS/MS analysis relative to control
Label scheme for Ratio: lower than 0.7 is label 0, 0.7 and above is label 1.

Observe how each entry below is paired with its result.
Q) API: above_or_equal(metric=Ratio, cutoff=0.7) for item CCN(C)S(=O)(=O)Nc1ccc(F)c(C(=O)c2c[nH]c3ncc(-c4ccc(Cl)cc4)cc23)c1F
A) label 0

Q) API: above_or_equal(metric=Ratio, cutoff=0.7) for item Nc1ncnc2c1ncn2[C@@H]1O[C@H](COP(=O)(O)OP(=O)(O)NP(=O)(O)O)[C@@H](O)[C@H]1O
A) label 1

Q) API: above_or_equal(metric=Ratio, cutoff=0.7) for item Nc1ncnc2c1ncn2[C@@H]1O[C@H](COP(=O)(O)OP(=O)(O)O)[C@@H](O)[C@H]1O
A) label 1

Turning now to a further compound:
Q) API: above_or_equal(metric=Ratio, cutoff=0.7) for item CCN(C)S(=O)(=O)Nc1ccc(F)c(C(=O)c2c[nH]c3ncc(Cl)cc23)c1F
A) label 0

* * *

# target.under.test: Serine/threonine-protein kinase B-raf (Homo sapiens)
# assay.remarks: Binding affinity to recombinant human full-length wild type B-Raf (unknown origin) assessed as LIDIAR accessible protease cleavage peptide level by LC-MS/MS analysis relative to control; further: test concentration or dose not given here
measured.quantity: Ratio
One number for each entry.

Q) For Serine/threonine-protein kinase B-raf (Homo sapiens), give Ratio of the listed compound: CCN(C)S(=O)(=O)Nc1ccc(F)c(C(=O)c2c[nH]c3ncc(-c4ccc(Cl)cc4)cc23)c1F
A) 0.23

Q) For Serine/threonine-protein kinase B-raf (Homo sapiens), give Ratio of the listed compound: Nc1ncnc2c1ncn2[C@@H]1O[C@H](COP(=O)(O)OP(=O)(O)O)[C@@H](O)[C@H]1O
A) 0.86

Q) For Serine/threonine-protein kinase B-raf (Homo sapiens), give Ratio of the listed compound: Nc1ncnc2c1ncn2[C@@H]1O[C@H](COP(=O)(O)OP(=O)(O)NP(=O)(O)O)[C@@H](O)[C@H]1O
A) 0.55

Please give Ratio, item by item, for the list that follows.
1. Nc1ncnc2c1ncn2[C@@H]1O[C@H](COP(=O)(O)OP(=O)(O)OP(=O)(O)O)[C@@H](O)[C@H]1O
2. CCN(C)S(=O)(=O)Nc1ccc(F)c(C(=O)c2c[nH]c3ncc(Cl)cc23)c1F

A)
0.54
0.5

* * *

# target.under.test: Serine/threonine-protein kinase B-raf (Homo sapiens, UniProt P15056)
# assay.remarks: Binding affinity to recombinant human full-length wild type B-Raf (unknown origin) assessed as SASEPSLNR accessible protease cleavage peptide level by LC-MS/MS analysis relative to control
For each of the molecules below, state its Ratio.
Numbers only.

Example entries begin here.
Q) Tell me its Ratio given Nc1ncnc2c1ncn2[C@@H]1O[C@H](COP(=O)(O)OP(=O)(O)O)[C@@H](O)[C@H]1O as the entry.
A) 1.04

Q) Tell me its Ratio given CCN(C)S(=O)(=O)Nc1ccc(F)c(C(=O)c2c[nH]c3ncc(-c4ccc(Cl)cc4)cc23)c1F as the entry.
A) 1.53

Q) Tell me its Ratio given Nc1ncnc2c1ncn2[C@@H]1O[C@H](COP(=O)(O)OP(=O)(O)OP(=O)(O)O)[C@@H](O)[C@H]1O as the entry.
A) 0.94

Q) Tell me its Ratio given Nc1ncnc2c1ncn2[C@@H]1O[C@H](COP(=O)(O)OP(=O)(O)NP(=O)(O)O)[C@@H](O)[C@H]1O as the entry.
A) 0.95

// switching to the query molecule
Q) Tell me its Ratio given CCN(C)S(=O)(=O)Nc1ccc(F)c(C(=O)c2c[nH]c3ncc(Cl)cc23)c1F as the entry.
A) 1.8
